Biological target: T1, PD-L1-hFc (human, UniProt Q9NZQ7 19-238)
T1 construct: extracellular domain; Made in HEK-293F cells, protein A purified; also called PD-L1 antigen; PD-L1 protein
T1 sequence (Q9NZQ7 other isoform, or with tags, fused parts or gaps limits assumed): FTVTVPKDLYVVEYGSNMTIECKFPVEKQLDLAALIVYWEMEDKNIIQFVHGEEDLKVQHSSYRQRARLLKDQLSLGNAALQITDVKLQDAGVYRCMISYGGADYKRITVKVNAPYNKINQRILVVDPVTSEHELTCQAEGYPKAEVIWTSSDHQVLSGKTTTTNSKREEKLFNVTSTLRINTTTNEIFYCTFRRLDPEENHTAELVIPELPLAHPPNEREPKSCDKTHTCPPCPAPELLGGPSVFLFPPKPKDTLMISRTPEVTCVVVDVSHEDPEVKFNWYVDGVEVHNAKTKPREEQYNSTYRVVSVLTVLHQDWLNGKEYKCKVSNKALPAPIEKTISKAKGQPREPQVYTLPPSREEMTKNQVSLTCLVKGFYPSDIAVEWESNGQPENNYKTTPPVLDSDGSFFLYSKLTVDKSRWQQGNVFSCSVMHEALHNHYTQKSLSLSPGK
Assay: kinetics on PD-L1-hFc (legend paragraph 40; text names ProteOn XPR36, the sheet's sensorgrams have a nm axis)
I'd be grateful if you could share measured pKd for these entries.
In textbook form, pKd equals minus log to base ten of the concentration in mol/L.

Request: // returns reported pKd for input PDL1-16E12 (LS/4C9) (antibody, V domains shown, also called PD-L1-16E12-4C9) VH: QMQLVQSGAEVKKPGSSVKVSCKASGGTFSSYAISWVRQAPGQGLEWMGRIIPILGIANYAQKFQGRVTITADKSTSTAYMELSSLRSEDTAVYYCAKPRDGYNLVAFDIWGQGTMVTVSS VL: QLVLTQPPSVSGAPGQRVTISCTGGSSNIGAGYDVHWYQQLPGTAPKLLLFGNTNRPSGVPGRFSGSKSGSSASLAITGLQSDDEADYYCQSYDSSLGGSVIGTGTKVTVL
Response: 10.80

Request: Which pKd value is on record for PDL1-16E12 (LS/4F5) (antibody, V domains shown, also called 16E12(4F5); 16E12-4F5) VH: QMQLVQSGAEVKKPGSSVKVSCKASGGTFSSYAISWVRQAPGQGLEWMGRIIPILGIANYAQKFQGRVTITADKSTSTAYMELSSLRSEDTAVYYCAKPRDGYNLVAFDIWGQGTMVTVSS VL: QLVLTQPPSVSGAPGQRVTISCTGSSSNIGAGYDVHWYQQLPGAAPKLLIYGDINRPSGVPDRFSGSKSGISASLAITGLQAEDEADYYCQSYDSSLSGGVFGGGTKLTVL ?
Response: 11.07

Request: Could you share which pKd value was measured for PDL1-16E12 (LS/4A11) (antibody, V domains shown, also called PD-L1-16E12-4A11) VH: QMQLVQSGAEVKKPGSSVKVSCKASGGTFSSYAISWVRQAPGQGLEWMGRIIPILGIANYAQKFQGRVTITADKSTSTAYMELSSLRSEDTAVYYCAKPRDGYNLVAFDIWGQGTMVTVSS VL: QLVLTQPPSVSGAPGQRVIISCTGSSSNIGAGYDVHWYQQVPGTAPKLLIYGNNHRPSGVPDRFSGSKSGTSASLAITGLQAEDETDYYCQSYDNRLSGSLFGGGTKLTVL ?
Response: 10.10

Request: What does the record list as pKd for PDL1-16E12 (LS/4A7) (antibody, V domains shown, also called PD-L1-16E12-4A7) VH: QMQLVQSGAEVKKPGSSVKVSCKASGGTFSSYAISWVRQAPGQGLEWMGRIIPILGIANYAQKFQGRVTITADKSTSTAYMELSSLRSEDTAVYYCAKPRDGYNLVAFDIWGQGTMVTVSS VL: QLVLTQPPSVSGAPGQRVTISCTGSSSNIGAGYDVHWYQSLPGTVPKLLISGNSNRPPGVPDRFSGSKSGTSASLAITSLQSEDEADYYCHSYDGSLSEGVFGTGTKVTVL ?
Response: 10.40
